Catalogue of melting point values

[
  {
    "COMPOUND": "NC(=O)c1cc(C(=O)N(CCO)CCO)cc([N+](=O)[O-])c1",
    "melting point": "151 °C"
  },
  {
    "COMPOUND": "CCCCC1(CCCC)NC(=O)c2ccccc2N1C",
    "melting point": "77 to 78 °C"
  },
  {
    "COMPOUND": "CNc1ncc2c(=O)[nH]c(-c3ccccc3OC)nc2n1",
    "melting point": "265 to 267 °C"
  },
  {
    "COMPOUND": "O=C1CCCC2=C1C(c1cccc([N+](=O)[O-])c1)C1=C(CCCC1)N2 (stereo not given)",
    "melting point": "218 to 221 °C"
  },
  {
    "COMPOUND": "Cc1cc2c([N+](=O)[O-])cccc2c(Cl)n1",
    "melting point": "112 °C"
  },
  {
    "COMPOUND": "C=C(C)C(=O)Nc1cccc(OC(=O)Nc2cccc3ccccc23)c1",
    "melting point": "195 to 196 °C"
  },
  {
    "COMPOUND": "CCCCC(CC)COC(=O)COc1cc(F)ccc1C(=O)NCc1cccc([N+](=O)[O-])c1 (stereo not given)",
    "melting point": "59 to 60 °C"
  },
  {
    "COMPOUND": "COC1=NS(=O)(=O)N(C)C(Cl)=N1",
    "melting point": "77 to 83 °C"
  },
  {
    "COMPOUND": "Cc1nc(NC(=O)c2cnn3c(C(F)(F)F)cc(-c4ccc(C(F)(F)F)cc4)nc23)sc1S(N)(=O)=O",
    "melting point": "303 °C"
  },
  {
    "COMPOUND": "CC(=O)CCCNC(=O)c1c2ccc(Cl)cc2c(-c2ccccc2)n1C",
    "melting point": "128 to 131 °C"
  },
  {
    "COMPOUND": "CC(=O)Nc1cccc(-n2ccnc2)c1",
    "melting point": "181 to 183 °C"
  },
  {
    "COMPOUND": "CN(C)C=C1CCc2ccn(C)c2C1=O",
    "melting point": "49 to 51 °C"
  },
  {
    "COMPOUND": "CCn1ncc(-c2ccc3c(c2)c(C2CCN(CCN4CCNC4=O)CC2)cn3-c2ccc(F)cc2)n1",
    "melting point": "173 to 175 °C"
  },
  {
    "COMPOUND": "O=C(Cl)c1ccc(C(=O)c2ccccc2)cc1",
    "melting point": "92 °C"
  },
  {
    "COMPOUND": "COc1cc(CCC2(CCc3ccc(O)c(OC)c3)CC(O)=C(Sc3cc(C)c(OCCO)cc3C(C)(C)C)C(=O)O2)ccc1O",
    "melting point": "76 to 82 °C"
  },
  {
    "COMPOUND": "CN1CCc2c(-c3ccc(F)cc3)c(C(=O)N(C)Cc3cc(C(F)(F)F)cc(C(F)(F)F)c3)n(C)c(=O)c2C1",
    "melting point": "156 to 157 °C"
  },
  {
    "COMPOUND": "O=C1COc2ccc(NC(=O)C(=O)N3CCC(Cc4ccc(F)cc4)CC3)cc2N1",
    "melting point": "197 to 200 °C"
  },
  {
    "COMPOUND": "O=C(O)c1cccc2c1Oc1c(cccc1C(=O)O)N2",
    "melting point": "146 °C"
  },
  {
    "COMPOUND": "CCOC(=O)c1cnc(Cl)cc1NC",
    "melting point": "61.4 to 63.1 °C"
  },
  {
    "COMPOUND": "CC12CCC3C(CCC4CC=CCC43C)C1CCC2C#N (stereo not given)",
    "melting point": "110 to 112 °C"
  },
  {
    "COMPOUND": "Oc1nc2ccccc2n2c(C(F)(F)F)nnc12",
    "melting point": "> 300 °C"
  },
  {
    "COMPOUND": "C[C@@H]([C@H](O)c1ccc(O)cc1)N1CCC(O)(Cc2ccccc2)CC1 (relative stereo)",
    "melting point": "173 to 174 °C"
  },
  {
    "COMPOUND": "O=C(O)Cc1c(C(=O)c2cc(Cl)ccn2)[nH]c2cc(Cl)ccc12",
    "melting point": "233 to 234 °C"
  },
  {
    "COMPOUND": "CS(=O)(=O)c1ccc(Cl)c(C(=O)Nc2ccc(-n3nc(C(F)(F)F)cc3C3CC3)cc2)c1",
    "melting point": "132 to 135 °C"
  },
  {
    "COMPOUND": "CN(c1cccc2cc(C3=NCC(CCN)S3)[nH]c12)S(=O)(=O)c1cccs1 (stereo not given)",
    "melting point": "172 to 174 °C"
  },
  {
    "COMPOUND": "CCCC(=O)c1cnc2c(C(O)CN(C)C)cccc2c1Nc1ccccc1C (stereo not given)",
    "melting point": "95 to 96 °C"
  },
  {
    "COMPOUND": "CNC1NC(=O)c2ccccc21 (stereo not given)",
    "melting point": "152 °C"
  },
  {
    "COMPOUND": "CC(=O)NC1(C)CCN(Cc2ccccc2)C1 (stereo not given)",
    "melting point": "105 to 106 °C"
  },
  {
    "COMPOUND": "CN(C)CCN1C(=O)C(NC(=O)CCc2ccc(Cl)cc2Cl)N=C(c2ccccc2)c2ccccc21 (stereo not given)",
    "melting point": "199 to 201 °C"
  },
  {
    "COMPOUND": "CS(=O)(=O)c1ccc(Oc2cc(OCc3ccccc3)c3[nH]c(C4=NCC(CCO)S4)cc3c2)cc1 (stereo not given)",
    "melting point": "97 to 98 °C"
  },
  {
    "COMPOUND": "COc1cc(NC(C)CCCN)c2nccc(C)c2c1Oc1cccc(C(F)(F)F)c1 (stereo not given)",
    "melting point": "128 to 131 °C"
  },
  {
    "COMPOUND": "N#CC1(N)CCc2cccc(Cl)c2C1 (stereo not given)",
    "melting point": "67 to 69 °C"
  },
  {
    "COMPOUND": "COc1cc(OC)nc(Cc2cccnc2NC(=O)OC(C)(C)C)n1",
    "melting point": "89 to 92 °C"
  },
  {
    "COMPOUND": "CC(C)(C)C(=O)Oc1ccccc1C(=O)c1ccccc1OC(=O)C(C)(C)C",
    "melting point": "106 to 108 °C"
  },
  {
    "COMPOUND": "Cc1cc(C2=CCCCC2)c(OP2OCC(C)(C)CO2)c(C(C)(C)C)c1",
    "melting point": "97 to 102 °C"
  },
  {
    "COMPOUND": "COc1ccc(Br)cc1-c1cc(-c2cccc(Br)c2)on1",
    "melting point": "149 to 150 °C"
  },
  {
    "COMPOUND": "CNC(=O)CC1CN=C(c2cc3cc(Oc4ccc(S(C)(=O)=O)cn4)cc(OC)c3[nH]2)S1 (stereo not given)",
    "melting point": "207 to 209 °C"
  },
  {
    "COMPOUND": "CN1C(=O)C(=Cc2cc(O)c(O)c([N+](=O)[O-])c2)SC1=S",
    "melting point": "274 to 276 °C"
  },
  {
    "COMPOUND": "CC(=NNC(=O)C1CCCCC1)c1ccncc1",
    "melting point": "195 °C"
  },
  {
    "COMPOUND": "O=C(COc1ccc(Cl)cc1)CS(=O)(=O)C(c1ccc(Cl)cc1)c1ccc(Cl)cc1",
    "melting point": "105 to 107 °C"
  }
]
